Tested on: Leishmania infantum
experimental-details: Antileishmanial activity against Leishmania infantum MCAN/ES/89/IPZ229/1/89 promastigotes assessed as growth inhibition at 12.5 uM after 24 hrs
Assay type: functional
parameter-measured: GI (%)
All answers are understood in %, so give the number only.

| structure-string | parameter-measured | val |
| --- | --- | --- |
| N#C[Se]Cc1ccc(C#N)cc1 | GI | 80.4 |
| N#C[Se]Cc1cccc([N+](=O)[O-])c1 | GI | 80.5 |

IN: Which GI is reported for this compound? `N#C[Se]Cc1ccc2ccccc2c1`
OUT: 81.1
